# assay_comment: AUC (infinity) in CD1 mouse at 1 mg/kg, po measured for 24 hrs by LC-MS/MS analysis
# Format: ADME, organism-based
# settings: in vivo
readout_label: AUC(0-inf) (ng·h/mL)

chem_smiles: C[C@@H](c1cnn(C)c1)n1cc(C(F)(F)F)cc(-c2cccc([C@]3(c4nncn4C)C[C@@H](C)C3)c2)c1=O
test_result: 30

====

# assay_comment: Oral bioavailability in CD1 mouse at 1 mg/kg measured for 24 hrs by LC-MS/MS analysis
# Format: ADME, organism-based
# settings: in vivo
readout_label: bioavailability

chem_smiles: C[C@@H](c1cnn(C)c1)n1cc(C(F)(F)F)cc(-c2cccc([C@]3(c4nncn4C)C[C@@H](C)C3)c2)c1=O
test_result: 19%

====

# assay_comment: Induction of IL-2 production in human T cells
# Type: functional, cell-based, T-cell
# settings: Homo sapiens, T-cell
readout_label: EC50

compound: Cn1cnnc1[C@@H](c1cccc(-c2cc(C(F)(F)F)c[nH]c2=O)c1)C1CCC1 (racemic)
readout_label: EC50
test_result: 5290 nM

compound: CC#CCn1cc(C(F)(F)F)cc(-c2cccc([C@]3(c4nncn4C)C[C@@H](C)C3)c2)c1=O
readout_label: EC50
test_result: 850 nM

compound: C[C@H](c1cnn(C)c1)n1cc(C(F)(F)F)cc(-c2cccc([C@]3(c4nncn4C)C[C@@H](C)C3)c2)c1=O
readout_label: EC50
test_result: 590 nM

compound: Cn1cc(C(F)(F)F)cc(-c2cccc([C@]3(c4nncn4C)C[C@@H](C)C3)c2)c1=O
readout_label: EC50
test_result: 5890 nM

compound: CC#C[C@H](C)n1cc(C(F)(F)F)cc(-c2cccc([C@]3(c4nncn4C)C[C@@H](C)C3)c2)c1=O
readout_label: EC50
test_result: 460 nM

compound: Cn1cnnc1C1(c2cccc(-c3cc(C(F)(F)F)c[nH]c3=O)c2)CCC1
readout_label: EC50
test_result: 3980 nM

====

# assay_comment: Lipophilicity, logD of compound at pH 7.4
# Type: physicochemical
# settings: buffer

compound: Cn1cnnc1[C@@H](c1cccc(-c2cc(C(F)(F)F)c[nH]c2=O)c1)C1CCC1 (racemic)
logD: 2.5
--
compound: Cn1cnc(Cn2cc(C(F)(F)F)cc(-c3cccc([C@]4(c5nncn5C)C[C@@H](C)C4)c3)c2=O)c1
logD: 2.4
--
compound: Cn1cc(C(F)(F)F)c2cc(-c3cccc([C@]4(c5nncn5C)C[C@@H](C)C4)c3)c(=O)[nH]c21
logD: 3.8
--
compound: Cn1cc(C(F)(F)F)cc(-c2cccc([C@]3(c4nncn4C)C[C@@H](C)C3)c2)c1=O
logD: 2.4

====

# assay_comment: Volume of distribution at steady state in CD1 mouse at 0.5 mg/kg, iv measured for 24 hrs by LC-MS/MS analysis
# Format: ADME, organism-based
# settings: in vivo, read-out: Vdss
readout_label: Vd (L/kg)

chem_smiles: C[C@@H](c1cnn(C)c1)n1cc(C(F)(F)F)cc(-c2cccc([C@]3(c4nncn4C)C[C@@H](C)C3)c2)c1=O
test_result: 1.3

====

# assay_comment: Tmax in Wistar Han rat at 1 mg/kg, po measured for 24 hrs by LC-MS/MS analysis
# Format: ADME, organism-based
# settings: in vivo

chem_smiles: C[C@@H](c1cnn(C)c1)n1cc(C(F)(F)F)cc(-c2cccc([C@]3(c4nncn4C)C[C@@H](C)C3)c2)c1=O
units_symbol: min
Tmax: 45

====

# assay_comment: Half life in CD1 mouse at 0.5 mg/kg, iv measured for 24 hrs by LC-MS/MS analysis
# Assay type: ADME, organism-based
# settings: in vivo

chem_smiles: C[C@@H](c1cnn(C)c1)n1cc(C(F)(F)F)cc(-c2cccc([C@]3(c4nncn4C)C[C@@H](C)C3)c2)c1=O
units_symbol: min
half-life: 18

====

molecules and their reported microsomal CLint
# assay_comment: Stability in human liver microsome assessed as intrinsic clearance
# Assay type: ADME
# settings: liver microsomes, read-out: CLH
readout_label: microsomal CLint (µL/min/mg)

chem_smiles: Cn1cnnc1[C@]1(c2cccc(-c3cc(OC(F)(F)F)c[nH]c3=O)c2)C[C@H](C)C1
readout_label: microsomal CLint
units_symbol: µL/min/mg
test_result: 3
--
chem_smiles: COc1c[nH]c(=O)c(-c2cccc([C@]3(c4nncn4C)C[C@@H](C)C3)c2)c1
readout_label: microsomal CLint
units_symbol: µL/min/mg
test_result: 9.7
--
chem_smiles: Cc1nnc(Cn2cc(C(F)(F)F)cc(-c3cccc([C@]4(c5nncn5C)C[C@@H](C)C4)c3)c2=O)o1
readout_label: microsomal CLint
units_symbol: µL/min/mg
test_result: 29
--
chem_smiles: Cn1cnnc1C1(c2cccc(-c3cc(C(F)(F)F)c[nH]c3=O)c2)CCC1
readout_label: microsomal CLint
units_symbol: µL/min/mg
test_result: 14
--
chem_smiles: Cn1cnnc1[C@]1(c2cccc(-c3cc(C4CC4)c[nH]c3=O)c2)C[C@H](C)C1
readout_label: microsomal CLint
units_symbol: µL/min/mg
test_result: 29
--
chem_smiles: CN1CCC(Cn2cc(C(F)(F)F)cc(-c3cccc([C@]4(c5nncn5C)C[C@@H](C)C4)c3)c2=O)CC1
readout_label: microsomal CLint
units_symbol: µL/min/mg
test_result: 47
--
chem_smiles: Cn1cnnc1[C@]1(c2cccc(-n3cc(C(F)(F)F)ccc3=O)c2)C[C@H](C)C1
readout_label: microsomal CLint
units_symbol: µL/min/mg
test_result: 15
--
chem_smiles: Cn1cc(C(F)(F)F)cc(-c2cccc([C@]3(c4nncn4C)C[C@@H](C)C3)c2)c1=O
readout_label: microsomal CLint
units_symbol: µL/min/mg
test_result: 37
--
chem_smiles: C[C@@H](C#N)n1cc(C(F)(F)F)cc(-c2cccc([C@]3(c4nncn4C)C[C@@H](C)C3)c2)c1=O
readout_label: microsomal CLint
units_symbol: µL/min/mg
test_result: 85
--
chem_smiles: CC#CCn1cc(C(F)(F)F)cc(-c2cccc([C@]3(c4nncn4C)C[C@@H](C)C3)c2)c1=O
readout_label: microsomal CLint
units_symbol: µL/min/mg
test_result: 76
--
chem_smiles: CN1CC[C@H](Cn2cc(C(F)(F)F)cc(-c3cccc([C@]4(c5nncn5C)C[C@@H](C)C4)c3)c2=O)C1
readout_label: microsomal CLint
units_symbol: µL/min/mg
test_result: 13
--
chem_smiles: C[C@H](c1cnn(C)c1)n1cc(C(F)(F)F)cc(-c2cccc([C@]3(c4nncn4C)C[C@@H](C)C3)c2)c1=O
readout_label: microsomal CLint
units_symbol: µL/min/mg
test_result: 220
--
chem_smiles: Cn1cc(Cn2cc(C(F)(F)F)cc(-c3cccc([C@]4(c5nncn5C)C[C@@H](C)C4)c3)c2=O)nn1
readout_label: microsomal CLint
units_symbol: µL/min/mg
test_result: 79
--
chem_smiles: Cn1cnnc1C[C@]1(c2cccc(-c3cc(C(F)(F)F)c[nH]c3=O)c2)C[C@H](C#N)C1
readout_label: microsomal CLint
units_symbol: µL/min/mg
test_result: 6.8
--
chem_smiles: Cn1cnc(Cn2cc(C(F)(F)F)cc(-c3cccc([C@]4(c5nncn5C)C[C@@H](C)C4)c3)c2=O)c1
readout_label: microsomal CLint
units_symbol: µL/min/mg
test_result: 130
--
chem_smiles: C[C@@H](c1cnn(C)c1)n1cc(C(F)(F)F)cc(-c2cccc([C@]3(c4nncn4C)C[C@@H](C)C3)c2)c1=O
readout_label: microsomal CLint
units_symbol: µL/min/mg
test_result: 160
--
chem_smiles: Cn1cc(C(F)(F)F)c2cc(-c3cccc([C@]4(c5nncn5C)C[C@@H](C)C4)c3)c(=O)[nH]c21
readout_label: microsomal CLint
units_symbol: µL/min/mg
test_result: 83
--
chem_smiles: Cn1cnnc1[C@]1(c2cccc(-c3cc(C(F)(F)F)c[nH]c3=O)c2)C[C@H](C)C1
readout_label: microsomal CLint
units_symbol: µL/min/mg
test_result: 2.5
--
chem_smiles: CC#C[C@H](C)n1cc(C(F)(F)F)cc(-c2cccc([C@]3(c4nncn4C)C[C@@H](C)C3)c2)c1=O
readout_label: microsomal CLint
units_symbol: µL/min/mg
test_result: 190

====

# assay_comment: Clearance in Wistar Han rat at 0.5 mg/kg, iv measured for 24 hrs by LC-MS/MS analysis
# Format: ADME, organism-based
# settings: in vivo

chem_smiles: C[C@@H](c1cnn(C)c1)n1cc(C(F)(F)F)cc(-c2cccc([C@]3(c4nncn4C)C[C@@H](C)C3)c2)c1=O
clearance: 55 mL/min/kg

====

The following compounds are shown together with reported EC50 values.
# assay_comment: Induction of IL-2 production in human T cells
# Type: functional, cell-based, T-cell
# settings: Homo sapiens, T-cell

chem_smiles: Cn1cnc(Cn2cc(C(F)(F)F)cc(-c3cccc([C@]4(c5nncn5C)C[C@@H](C)C4)c3)c2=O)c1
EC50 / nM: 2530

chem_smiles: Cn1cc(Cn2cc(C(F)(F)F)cc(-c3cccc([C@]4(c5nncn5C)C[C@@H](C)C4)c3)c2=O)nn1
EC50 / nM: 1680

chem_smiles: C[C@@H](C#N)n1cc(C(F)(F)F)cc(-c2cccc([C@]3(c4nncn4C)C[C@@H](C)C3)c2)c1=O
EC50 / nM: 440

chem_smiles: CN1CC[C@H](Cn2cc(C(F)(F)F)cc(-c3cccc([C@]4(c5nncn5C)C[C@@H](C)C4)c3)c2=O)C1
EC50 / nM: 10800
